Source of measurements: patent US20080242698A1

REPORTED METRIC: melting point

Sample answers from the record:
[[record]]
molecule = "CC(C)N(C(=O)CNCc1ccc(Cl)c(Cl)c1)c1ccccc1.Cl"
measured_value = "245 to 250 °C"

[[record]]
molecule = "CC1CCc2ccccc2N1C(=O)CNCC(c1ccccc1)c1ccccc1.Cl (racemic)"
measured_value = "212 to 215 °C"

[[record]]
molecule = "O=C(CN1CCc2ccccc2C1)N(c1ccccc1)c1ccccc1"
measured_value = "202 to 204 °C"


Using known records, supply melting point for O=C(CNC(c1ccccc1)c1ccccc1)N(c1ccccc1)c1ccccc1
122 to 123 °C

* * *

REPORTED METRIC: melting point

[[record]]
compound = "Cl.O=C(CNCC(c1ccccc1)c1ccccc1)N(Cc1ccccc1)c1ccccc1"
measured_value = "188 to 190 °C"

[[record]]
compound = "Cl.NC(C(=O)NCC(=O)N(c1ccccc1)c1ccccc1)c1ccccc1 (centres unmarked)"
measured_value = "177 to 185 °C (dec.)"

[[record]]
compound = "O=C(CNCc1ccccc1Cl)NC(c1ccccc1)c1ccccc1 [Example 5]"
measured_value = "98 to 99 °C"

[[record]]
compound = "Cl.O=C(CNCc1ccc(Cl)c(Cl)c1)N1c2ccccc2C=Cc2ccccc21"
measured_value = "244 to 249 °C"


Shifting focus to the compound that follows.
Using known records, supply melting point for CC(CNCC(=O)N1CCCc2ccccc21)(c1ccccc1)c1ccccc1.Cl
210 to 212 °C
